Measured Tm, listed per entry.
Experiment: melting temperature; fluorescence melt of hairpins on a sequencing array, two-state fit, raised by 9.35 °C to match UV melts
Settings: sodium 0.088 M
# output: bare number, implied unit °C

Solved cases (5 shown):
construct sequence: GATCAGTTTCCTGATC ((((((....))))))
Tm [°C]: 50.9
--
construct sequence: GTTAGCGAAAGCTATAAC ((((((....)))..)))
Tm [°C]: 31.4
--
construct sequence: GTTTAACGAAAGTTTAAC (((.(((....))).)))
Tm [°C]: 36.2
--
construct sequence: CGCCCGGAAACGGGTGCG ((((((....)))..)))
Tm [°C]: 57.5
--
construct sequence: GCATACGAAAGTACGTGC ((((((....)))..)))
Tm [°C]: 34.4

Q) Form field: reported Tm of CCTGAGAAATCAGG (((((....)))))
A) 44.8

Q) Return reported Tm; argument: GATCGAGCGTTCGATC ((((((....))))))
A) 52.1

Q) # query: Tm of entry GATCGTCAAACGATC ((((((...))))))
A) 52.1

Q) Endpoint output: Tm of GCGGTACCCGC ((((...)))) . Value?
A) 63.3

Q) Give its Tm value. Item: GTCGGTGGAAACGCCGAC (((((.(....).)))))
A) 63.2

---

Assay: melting temperature; fluorescence melt of hairpins on a sequencing array, two-state fit, raised by 9.35 °C to match UV melts
Conditions: sodium 0.088 M
Label scheme for Tm: class 0 (below 50 °C), class 1 (50 °C to below 60 °C), class 2 (60 °C or more)

Worked set:
construct sequence: GATAGAGGAAACCCTATC (((((.(....).)))))
assigned class: class 0
//
construct sequence: GCGTCTAACGC ((((...))))
assigned class: class 1
//
construct sequence: GCGCCGCGAAAGCGTGGC ((..(((....)))..))
assigned class: class 1
//
construct sequence: GCTAGGCGAAAGCATCGC ((.(.((....)).).))
assigned class: class 0
//
construct sequence: GCATTCGAAAGAATGC ((((((....))))))
assigned class: class 2
//
construct sequence: GGTACAGAAATGTACC ((((((....))))))
assigned class: class 1
//
construct sequence: GTCGTCGAAAGACCCGAC ((((((....)))..)))
assigned class: class 0
//
construct sequence: GGTTGCGAAAGCACCACC ((((((....)))..)))
assigned class: class 0
//
construct sequence: GCCAAGCGAAAGCTGGC (((.(((....))))))
assigned class: class 2
//
construct sequence: GCGCACCGAAAGGTACGC (((.(((....))).)))
assigned class: class 2

Q) Consider GATCCTGGTCAGGATC ((((((....)))))) . To which Tm class does it belong?
A) class 1

Q) Input GATCAACTCTTTGATC ((((((....)))))) ; output its category
A) class 0

Q) The entry to classify is GTGGTTGGAAACAGTCAC (((..((....))..))) ; which class holds it?
A) class 0

Q) Class? Entry: GCTCCCGAAAGGGCCAGC ((((((....)))..)))
A) class 0

Q) GET /class?item= GATCTTTGATAAGATC ((((((....))))))
A) class 0

Q) Please let me know in which category the item GCTCCGCGAAAGCGGCGC ((.((((....)))).)) belongs.
A) class 2

Q) Dear colleague, I would appreciate it if you could identify the bin for GCGATCTCTCGC ((((....)))) and reply at your convenience.
A) class 0

Q) Hi there! Could you help me figure out the category for GAGCCAGGAAACTGGCCC (.(((((....))))).) please?
A) class 0

Q) Which category does the recorded Tm put GGTTGCGGAAACGCGACC (((.(((....))).))) in?
A) class 2

Q) Returns: class label. Input: GCCCGCGAAAGCGTAGGC ((((((....)))..)))
A) class 2

---

Tm values, listed per item
Test: melting temperature; fluorescence melt of hairpins on a sequencing array, two-state fit, raised by 9.35 °C to match UV melts
Conditions: sodium 0.088 M

Solved entries:
construct sequence: GTAGGCACGAAAGTGTAC (((..(((....))))))
Tm: 29.8 °C
--
construct sequence: GATCATGAGTATGATC ((((((....))))))
Tm: 46.7 °C
--
construct sequence: GCACCGCGAAAGCGGAGC ((.((((....)))).))
Tm: 69 °C
--
construct sequence: GGCCCCGAAAGGGCTGCC ((((((....)))..)))
Tm: 68.2 °C
--
construct sequence: GGCAATGGAAACGTTGTC (.(((.(....).))).)
Tm: 35.8 °C

API: the following record is the query input.
Q) I am curious: what Tm value has been reported for GTGTCCGAAAGGAGGCAC ((((((....)))..))) ?
A) 39.5 °C

---

folding enthalpy values for the sequences below.
Assay: folding enthalpy; higher = less favourable; fluorescence melt of hairpins on a sequencing array, two-state fit
Details: sodium 0.088 M
Could you give me the number in kcal/mol? Just the number is fine.

Example cases with answers are listed next.
construct sequence: GATCTCAATCGAGATC ((((((....))))))
unit info: kcal/mol
folding enthalpy: -43.7
--
construct sequence: GATCTTCTACAAGATC ((((((....))))))
unit info: kcal/mol
folding enthalpy: -30.3
--
construct sequence: TAGCTGAAAAGCTA (((((....)))))
unit info: kcal/mol
folding enthalpy: -14.6
--
construct sequence: GTGTGTGGAAACATGCAC (((..((....))..)))
unit info: kcal/mol
folding enthalpy: -27.4
--
construct sequence: GAGAGCGGAAACACTCTC (((((.(....).)))))
unit info: kcal/mol
folding enthalpy: -28.1
--
construct sequence: GATCCGGACCCGGATC ((((((....))))))
unit info: kcal/mol
folding enthalpy: -36.9
--
construct sequence: GTCGGACGAAAGTCTGAC (((.(((....))).)))
unit info: kcal/mol
folding enthalpy: -40.9
--
construct sequence: GCCCCAGGAAACTGGAGC ((.((((....)))).))
unit info: kcal/mol
folding enthalpy: -25.3

Q) For the sequence shown here, GTGAGGGGAAACCCTCAC (((((((....))))))) , give the reported folding enthalpy.
A) -33.4

Q) Query (sequence): GTAGCTGGAAACAGCTAC (((((((....))))))) ; field requested: folding enthalpy
A) -39

Q) For GATCTTGCTAAGATC ((((((...)))))) , what is its reported folding enthalpy?
A) -31.8

Q) What folding enthalpy value was documented for this sequence, CGCGGACCGATCCGCG ((((((....)))))) ?
A) -36.5

---

Assay: folding enthalpy; higher = less favourable; fluorescence melt of hairpins on a sequencing array, two-state fit
Conditions: sodium 0.088 M
measured parameter: folding enthalpy (kcal/mol)
Write down the numeric answer in kcal/mol and omit the unit.

Worked set:
construct sequence: GCCGACGAAAGTCATGGC ((((((....)))..)))
unit info: kcal/mol
folding enthalpy: -34.5
--
construct sequence: GTGGGGCGAAAGCCTCAC (((.(((....))).)))
unit info: kcal/mol
folding enthalpy: -30.2
--
construct sequence: GCTCGCCGAAAGGCAGC (((.(((....))))))
unit info: kcal/mol
folding enthalpy: -19.9
--
construct sequence: GCACTGCGAAAGCTGAGC ((.(.((....)).).))
unit info: kcal/mol
folding enthalpy: -20.5
--
construct sequence: GATCTGACTCAGATC ((((((...))))))
unit info: kcal/mol
folding enthalpy: -33.7

Q) # input sequence: GCATTCTCGAAAGAGTGC (((..(((....)))))) ; wanted: its folding enthalpy
A) -24.3

Q) // returns reported folding enthalpy for input GGACTGGGAAACCGGTCC ((((.((....)).))))
A) -39.9

Q) folding enthalpy lookup needed for GATCACCCTTGTGATC ((((((....)))))) , thanks.
A) -43.7

Q) # input sequence: GATCTGTATCCAGATC ((((((....)))))) ; wanted: its folding enthalpy
A) -40.3

Q) Would you mind telling me what folding enthalpy value was observed for GAGCAAGCGAAAGCTCTC (((..(((....)))))) ?
A) -11.6

Q) Fill blank: measured folding enthalpy of the sequence GTATACGCGAAAGCGTAC (((..(((....)))))) is ____.
A) -7.12

Q) What value of measured folding enthalpy is listed for GTAAGACGAAAGTCATAC (((.(((....))).))) ?
A) -20.6
